Molecular target: HEK293 cells expressing NR1/NR2B (Homo sapiens (Human), UniProt Q05586+Q13224)
Sequence (Q13224 27-1484, other chains not shown): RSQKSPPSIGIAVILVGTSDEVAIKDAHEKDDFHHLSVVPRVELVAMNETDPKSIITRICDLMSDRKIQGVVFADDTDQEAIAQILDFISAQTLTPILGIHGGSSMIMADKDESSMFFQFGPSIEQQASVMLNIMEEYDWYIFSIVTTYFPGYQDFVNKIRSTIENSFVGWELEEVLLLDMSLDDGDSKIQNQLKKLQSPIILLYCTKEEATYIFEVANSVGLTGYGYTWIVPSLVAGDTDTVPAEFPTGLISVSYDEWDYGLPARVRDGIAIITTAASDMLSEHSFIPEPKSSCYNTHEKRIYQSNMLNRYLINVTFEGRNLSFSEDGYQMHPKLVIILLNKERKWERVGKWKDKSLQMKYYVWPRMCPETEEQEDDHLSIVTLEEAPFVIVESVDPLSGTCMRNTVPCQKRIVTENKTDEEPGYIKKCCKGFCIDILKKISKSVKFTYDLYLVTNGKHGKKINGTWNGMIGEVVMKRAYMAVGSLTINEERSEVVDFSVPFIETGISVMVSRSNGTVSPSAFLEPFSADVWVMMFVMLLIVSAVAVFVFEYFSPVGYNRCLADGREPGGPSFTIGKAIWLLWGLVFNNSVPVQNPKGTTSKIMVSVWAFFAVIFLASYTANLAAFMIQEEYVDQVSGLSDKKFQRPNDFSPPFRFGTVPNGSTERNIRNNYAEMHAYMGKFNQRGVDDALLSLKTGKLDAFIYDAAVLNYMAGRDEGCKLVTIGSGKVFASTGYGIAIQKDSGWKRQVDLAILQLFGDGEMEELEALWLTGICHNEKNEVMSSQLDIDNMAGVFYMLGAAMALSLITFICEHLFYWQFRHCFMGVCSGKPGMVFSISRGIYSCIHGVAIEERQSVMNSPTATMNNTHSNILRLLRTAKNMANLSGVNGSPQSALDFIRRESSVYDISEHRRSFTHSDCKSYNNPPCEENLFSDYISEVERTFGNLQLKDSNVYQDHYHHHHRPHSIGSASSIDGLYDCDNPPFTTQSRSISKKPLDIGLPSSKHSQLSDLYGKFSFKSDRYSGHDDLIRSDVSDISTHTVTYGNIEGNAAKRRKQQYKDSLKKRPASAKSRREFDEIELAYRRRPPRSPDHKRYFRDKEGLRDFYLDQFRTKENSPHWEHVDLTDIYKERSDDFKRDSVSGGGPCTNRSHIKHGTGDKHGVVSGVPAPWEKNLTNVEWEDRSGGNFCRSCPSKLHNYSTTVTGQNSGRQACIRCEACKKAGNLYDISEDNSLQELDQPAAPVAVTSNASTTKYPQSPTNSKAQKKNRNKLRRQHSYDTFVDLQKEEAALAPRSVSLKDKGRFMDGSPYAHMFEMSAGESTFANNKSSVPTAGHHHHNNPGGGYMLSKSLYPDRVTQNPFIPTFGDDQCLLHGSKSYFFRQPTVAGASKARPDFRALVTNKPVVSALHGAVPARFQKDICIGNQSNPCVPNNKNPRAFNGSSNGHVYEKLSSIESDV
Assay: NR2B NAM Assay (FDSS Ca2+ influx cell assay)
Settings: NR2B NAM assay, class of inhibitory concentration; read-out: Activity Category
MEASURED_ENDPOINT: IC50

Cc1ccc(O[C@H]2C[C@@H]3CN(CC(O)c4ccc(O)c(F)c4)C[C@@H]3C2)cn1 (some centres unmarked) = < 0.1 µM
N#Cc1ccc(O[C@H]2C[C@@H]3CN(CC(=O)c4ccc(O)cc4)C[C@@H]3C2)cc1 = < 0.1 µM

Take each entry in turn and give its IC50.
1. COc1cccc(F)c1O[C@H]1C[C@@H]2CN(CC(=O)c3ccc(O)cn3)C[C@@H]2C1
2. Cc1cccc(O[C@H]2C[C@@H]3CN(CC(O)c4ccc(O)cc4)C[C@@H]3C2)c1F (some centres unmarked)
3. O=S(=O)(c1ccccc1)[C@H]1C[C@@H]2CN(CC(O)c3ccc(O)cc3)C[C@@H]2C1 (some centres unmarked)
4. COC(CN1C[C@H]2C[C@H](Oc3ccc(F)cc3)C[C@H]2C1)c1ccc(OCc2ccccc2)cc1 (some centres unmarked)
5. COc1ccc(S[C@H]2C[C@@H]3CN(CC(=O)c4ccc(O)cc4)C[C@@H]3C2)cc1
6. O=C(CN1C[C@H]2C[C@H](Oc3ccc(F)c(F)c3)C[C@H]2C1)c1ccc(O)cc1
7. Oc1ccc(C(O)CN2C[C@H]3C[C@@H](Oc4ccc(F)c(F)c4)C[C@H]3C2)nc1 (some centres unmarked)
8. Oc1ccc(C(O)CN2C[C@H]3C[C@H](Oc4ccccc4Cl)C[C@H]3C2)nc1 (some centres unmarked)

Output:
1. > 10 µM
2. < 0.1 µM
3. 1 to 10 µM
4. > 10 µM
5. 0.1 to 1 µM
6. < 0.1 µM
7. < 0.1 µM
8. < 0.1 µM

Take each entry in turn and give its IC50.
1. N#Cc1ccc(O[C@H]2C[C@@H]3CN(CC(O)c4ccc(O)cc4)C[C@@H]3C2)cc1 (some centres unmarked)
2. COc1ccc(O[C@H]2C[C@@H]3CN(CC(=O)c4ccc(O)c(F)n4)C[C@@H]3C2)cc1
3. COc1ccc(O[C@H]2C[C@@H]3CN(CC(O)c4ccc(O)cc4)C[C@@H]3C2)cc1 (some centres unmarked)
4. O=C(CN1C[C@H]2C[C@H](Oc3cccnc3F)C[C@H]2C1)c1ccc(O)cn1
5. Cc1ccc(O[C@H]2C[C@@H]3CN(CC(=O)c4ccc(O)c(F)c4)C[C@@H]3C2)cn1
6. Oc1ccc([C@@H](O)CN2C[C@H]3C[C@H](Oc4ccccc4)C[C@H]3C2)nc1
7. Oc1ccc(C(O)CN2C[C@H]3C[C@@H](Oc4cc(F)cc(F)c4)C[C@H]3C2)nc1 (some centres unmarked)

Output:
1. < 0.1 µM
2. > 10 µM
3. < 0.1 µM
4. > 10 µM
5. 1 to 10 µM
6. < 0.1 µM
7. 1 to 10 µM

----------
Target: HEK293 cells expressing NR1/NR2B (Homo sapiens (Human))
Test: NR2B NAM Assay (FDSS Ca2+ influx cell assay)
Type: cell-based
Conditions: Ca2+ influx inhibition relative to MK801; 3 μM glutamate, 3 μM glycine, 1 mM Ca2+; read-out: NR2B NAM IC50
Description: Cell Culture and plating: HEK293 cells expressing NR1/NR2B (Chantest, Cleveland, Ohio) were grown to 70-80% confluency as an adherent monolayer in standard tissue culture flasks at 37° C., 5% CO2 per supplier's instructions. […] After induction, cell culture medium was removed and cells were rinsed once with Ca^2+ and Mg^2+-free Dulbecco's phosphate buffered saline. […] Following two washes in Ca^2+/Mg^2+-free HBSS with 20 mM HEPES (HHnoCa), cells were counted and viability assessed using trypan blue. […]
MEASURED_ENDPOINT: IC50 (nM)
Give bare numbers, in nM.

Here are 3 compounds together with their reported answers.
COc1ccc(O[C@H]2C[C@@H]3CN(CC(=O)c4ccc(O)c(OC)n4)C[C@@H]3C2)cc1 = 10000
O=C(CN1C[C@H]2C[C@H](Oc3cccnc3)C[C@H]2C1)c1ccc(O)cc1 = 81.5
COc1ccc(O[C@H]2C[C@@H]3CN(CC(O)c4ccc(O)c(F)c4)C[C@@H]3C2)cc1 (stereo partly shown) = 41.5

In the following, a different compound is considered.
Input: Which measured IC50 value corresponds to COc1ccc(O[C@@H]2C[C@@H]3CN(CC(O)c4ccc(O)cn4)C[C@@H]3C2)cc1 (stereo partly shown) ?
Output: 440

Measured values drawn from patent US10239835B2 for this set.
